- System: rabbit skeletal myofibrils (approximately 90% fast fibers)
- Test Protocol: Activation of fast skeletal myofibrils (PUMA coupled-enzyme ATPase assay)
- Type: biochemical
- Measurement Setup: AC1.4 = concentration at which the compound increased the enzymatic activity by 40%; myofibril suspension at calcium level pCa25; PM12 buffer pH 6.8

{"columns": ["Compound", "Mean AC1.4"],
 "data": [
  ["CC(C)(CNc1ncc(-c2cc(C(N)=O)ccc2F)nn1)c1ncccc1Cl", "B (B=1-10 uM)"],
  ["CC(C)(CNc1ncc(-c2ccc3[nH]ncc3c2)nn1)c1ncccc1F", "C (C=10-20 uM)"],
  ["CC(C)(CNc1ccc(CCNS(C)(=O)=O)cn1)c1ccc(F)cc1", "D (D=>20 uM)"],
  ["CC(C)(Nc1ncc(-c2cc(CO)ccc2F)nn1)c1ncccc1F", "C (C=10-20 uM)"],
  ["CNC(=O)c1ccc(F)c(-c2cnc(NC[C@]3(c4ncccc4F)C[C@H](F)C3)nn2)c1", "B (B=1-10 uM)"],
  ["CC(=O)NCc1cnc(-c2cnc(NC(C)(C)c3ncccc3Cl)nn2)s1", "D (D=>20 uM)"],
  ["CC(C)(CNc1cccc(-c2ccc(F)cc2)n1)c1ccc(F)cc1", "D (D=>20 uM)"],
  ["NCc1cnc(-c2cnc(NC[C@]3(c4ncccc4F)C[C@H](F)C3)nn2)s1", "B (B=1-10 uM)"],
  ["CC(C)(CNc1cccc(Br)n1)c1ccc(F)cc1", "C (C=10-20 uM)"],
  ["CC(C)(CNc1ccc(CC(O)CO)cn1)c1ccc(F)cc1 (centres unmarked)", "D (D=>20 uM)"]
]}

* * *

- System: rabbit skeletal myofibrils (approximately 90% fast fibers)
- Test Protocol: Activation of fast skeletal myofibrils (PUMA coupled-enzyme ATPase assay)
- Assay type: biochemical
- Measurement Setup: AC1.4 = concentration at which the compound increased the enzymatic activity by 40%; myofibril suspension at calcium level pCa25; PM12 buffer pH 6.8

{"columns": ["Line Notation", "Mean AC1.4"],
 "data": [
  ["CC(C)(Nc1ncc(-c2ncc(CN)s2)nn1)c1ncccc1Cl", "D (D=>20 uM)"],
  ["NC(=O)c1cccc(-c2ncc(NCC3(c4ccc(F)cc4)CCC3)nn2)c1", "A (A=<1 uM)"],
  ["COC(=O)c1ccc(F)c(-c2cnc(NCC3(c4ncccc4Cl)CCC3)nn2)c1", "B (B=1-10 uM)"],
  ["CNC(=O)c1ccc(O)c(-c2cnc(NC[C@]3(c4ncccc4F)C[C@H](F)C3)nn2)c1", "A (A=<1 uM)"],
  ["N#Cc1cccc(-c2cnc(NC[C@]3(c4ncccc4Cl)C[C@H](F)C3)nn2)c1", "B (B=1-10 uM)"],
  ["OCc1cnc(-c2cnc(NC[C@]3(c4ncccc4F)C[C@H](F)C3)nn2)s1", "B (B=1-10 uM)"],
  ["CC(C)(CNc1ncc(-c2ccc3[nH]nc(N)c3c2)nn1)c1ccc(F)cc1", "A (A=<1 uM)"],
  ["CC(C)(Nc1ncc(-c2cc(C(N)=O)ccc2F)nn1)c1cccc(S(C)(=O)=O)c1", "D (D=>20 uM)"],
  ["C[C@H](CNc1ccc(-c2cccc(C(N)=O)c2)cn1)c1ccc(F)cc1", "B (B=1-10 uM)"],
  ["NC(=O)c1ccc(F)c(-c2cnc(NC3(c4cccc(OC(F)F)n4)CCC3)nn2)c1", "A (A=<1 uM)"]
]}

Every entry's value here was drawn from patent US9994528B2.
